Test: Cmax in Sprague-Dawley rat plasma at 10 mg/kg, po
Type: ADME, organism-based
Set-up: route oral, dose 10 mg/kg
MEASURED_METRIC: Cmax (ng/mL)
// return numeric value only (unit: ng/mL, not printed)

Query: Respond only with Cmax recorded for COc1cc2c(cc1OC)C(=O)C(CC1(F)CCN(Cc3ccccc3F)CC1)C2 (stereo unspecified)
Result: 215

* * *

Biological target: Acetylcholinesterase (Rattus norvegicus, UniProt P37136)
Sequence (P37136 whole entry): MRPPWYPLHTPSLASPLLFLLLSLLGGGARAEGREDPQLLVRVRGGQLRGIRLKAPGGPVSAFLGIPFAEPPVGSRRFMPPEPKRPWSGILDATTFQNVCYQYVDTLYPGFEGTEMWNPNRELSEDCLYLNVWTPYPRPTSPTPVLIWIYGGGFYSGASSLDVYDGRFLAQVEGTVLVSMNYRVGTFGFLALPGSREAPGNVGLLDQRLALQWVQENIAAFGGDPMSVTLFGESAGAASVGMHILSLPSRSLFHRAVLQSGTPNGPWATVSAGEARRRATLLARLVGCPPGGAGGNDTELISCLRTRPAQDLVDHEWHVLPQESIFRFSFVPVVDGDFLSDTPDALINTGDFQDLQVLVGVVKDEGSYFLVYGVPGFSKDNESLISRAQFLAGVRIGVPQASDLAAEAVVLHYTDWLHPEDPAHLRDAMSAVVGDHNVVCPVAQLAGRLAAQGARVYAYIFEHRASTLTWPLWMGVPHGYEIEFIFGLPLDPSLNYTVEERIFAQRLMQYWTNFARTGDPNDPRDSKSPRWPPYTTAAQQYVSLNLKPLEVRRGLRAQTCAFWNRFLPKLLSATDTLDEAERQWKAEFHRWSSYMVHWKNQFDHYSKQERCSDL
Each item that follows carries a reported pIC50.
pIC50 (log units): -log10 of the concentration in mol/L.

Before answering, review these 3 worked examples.
INSERT INTO results (compound, assay_target, val) VALUES
  ('COc1cc2c(cc1OC)C(=O)C(CC1(F)CCN(Cc3cc(F)cc(F)c3F)CC1)C2 (stereo not given)', 'Acetylcholinesterase (Rattus norvegicus, UniProt P37136)', 6.51),
  ('CCCCOc1cc2c(cc1OCCCC)C(=O)C(CC1(F)CCN(Cc3cccc(F)c3)CC1)C2 (stereo not given)', 'Acetylcholinesterase (Rattus norvegicus, UniProt P37136)', 6.19),
  ('COc1cc2c(cc1OC)C(=O)C(CC1(F)CCN(Cc3ccccc3C(F)(F)F)CC1)C2 (stereo not given)', 'Acetylcholinesterase (Rattus norvegicus, UniProt P37136)', 5.79);

Query: Respond only with pIC50 recorded for COc1cc2c(cc1OCC1CC1)C(=O)C(CC1(F)CCN(Cc3ccc(F)cc3)CC1)C2 (stereo not given)
Result: 8.27

Query: Respond only with pIC50 recorded for CCCOc1cc2c(cc1OCCC)C(=O)C(CC1(F)CCN(Cc3ccccc3F)CC1)C2 (stereo not given)
Result: 7.18
